List of protein stability index values.
B1: P2RY14 (parent)
chain: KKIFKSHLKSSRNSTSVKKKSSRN

Variants of: B1
protocol_summary: protein stability index of a GFP-peptide fusion (GPS, HEK-293T) (PSI 1-6); higher = more stable;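 further: lentivirally expressed fusions sorted by FACS into six bins by GFP to DsRed ratio, PSI derived from sequencing read proportions per bin multiplied by bin number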
condition: c terminus: a fixed tail appended
measured_attribute: protein stability index

residue_change: H7G
experimental_result: 4.27
//
residue_change: S10V
experimental_result: 3.81
//
residue_change: I3W
experimental_result: 3.79
//
residue_change: T15H
experimental_result: 4.01
//
residue_change: V17Y
experimental_result: 3.99
//
residue_change: S11G
experimental_result: 4.26
//
residue_change: K2A
experimental_result: 3.91
//
residue_change: F4C
experimental_result: 4.27
//
residue_change: S16M
experimental_result: 4.35
//
residue_change: S16H
experimental_result: 4.45
//
residue_change: K1G
experimental_result: 4.51

Provenance of the data: the supplement of paper PMC10567573
